Each recorded value in this set is attributed to the supplement of paper PMC10065799.

biological target: MERTK (UniProt Q12866); test: phosphorylation enrichment, bacterial display (enrichment ratio); higher = better substrate or ligand; peptides without Tyr show the background;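 also: 11-residue human phosphosite peptides and single-mutation variants displayed on the E. coli surface, counted by deep sequencing, each peptide's frequency after selection divided by its frequency in the unselected input library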;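 also: frequency after pTyr selection over input frequency; kinase dosed for 20-30% of maximal phosphorylation in three min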
Sequence (Q12866 whole entry, looked up): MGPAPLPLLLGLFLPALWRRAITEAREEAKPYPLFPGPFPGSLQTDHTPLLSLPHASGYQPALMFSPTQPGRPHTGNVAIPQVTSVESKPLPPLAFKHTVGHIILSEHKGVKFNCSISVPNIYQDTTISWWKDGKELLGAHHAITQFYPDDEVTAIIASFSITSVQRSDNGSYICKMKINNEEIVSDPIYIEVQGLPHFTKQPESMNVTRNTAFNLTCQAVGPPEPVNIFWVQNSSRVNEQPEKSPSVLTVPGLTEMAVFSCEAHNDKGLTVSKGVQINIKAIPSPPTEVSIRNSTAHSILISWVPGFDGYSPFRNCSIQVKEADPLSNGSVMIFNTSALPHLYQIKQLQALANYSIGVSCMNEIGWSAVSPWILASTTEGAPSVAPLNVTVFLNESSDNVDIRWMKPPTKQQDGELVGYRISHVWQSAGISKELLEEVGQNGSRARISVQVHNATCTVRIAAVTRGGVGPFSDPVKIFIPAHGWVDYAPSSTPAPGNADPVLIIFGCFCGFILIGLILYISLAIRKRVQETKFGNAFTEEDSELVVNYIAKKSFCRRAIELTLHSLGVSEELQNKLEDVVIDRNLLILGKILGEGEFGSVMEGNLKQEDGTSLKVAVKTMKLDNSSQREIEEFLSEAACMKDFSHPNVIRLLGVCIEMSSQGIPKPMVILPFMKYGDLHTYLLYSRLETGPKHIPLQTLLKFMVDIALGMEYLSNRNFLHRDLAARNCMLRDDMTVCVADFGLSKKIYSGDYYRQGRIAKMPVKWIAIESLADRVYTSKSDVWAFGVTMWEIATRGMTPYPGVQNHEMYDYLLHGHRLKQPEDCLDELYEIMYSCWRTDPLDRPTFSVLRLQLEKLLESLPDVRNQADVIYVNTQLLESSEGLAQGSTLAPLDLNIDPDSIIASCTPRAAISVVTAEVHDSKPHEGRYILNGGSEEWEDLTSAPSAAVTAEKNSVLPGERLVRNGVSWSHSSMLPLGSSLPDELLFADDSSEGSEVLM
test_readout: phosphorylation enrichment

In plain terms, YAADYYKLLGN [ROR2_Y646] has a documented phosphorylation enrichment of 1.47

In plain terms, RSSGGYEPRGR [FUS_Y239] has a documented phosphorylation enrichment of 0.425

In plain terms, SHISGYAALRR [RAPH1_Y1226_T1228A] has a documented phosphorylation enrichment of 0.446

In plain terms, TNIKRYHIAKV [HARS1_Y150] has a documented phosphorylation enrichment of 0.358

In plain terms, PNRILYRDFRQ [MYH7_Y715_G716R] has a documented phosphorylation enrichment of 0.574

In plain terms, CSRRFYQLTKL [AR_Y858] has a documented phosphorylation enrichment of 0.448

In plain terms, CGTPEYRAPEI [PRKACA_Y205_L206R] has a documented phosphorylation enrichment of 0.467

In plain terms, QRIHDYYEHRY [HCN4_Y554] has a documented phosphorylation enrichment of 0.433

In plain terms, RQQEVYLLFKQ [RARRES1_Y159_D158V_YF] has a documented phosphorylation enrichment of 0.478

In plain terms, AAVDNYCRHNY [HLA-DRB1_Y107_T106N] has a documented phosphorylation enrichment of 0.46

In plain terms, GGDGSYVSVPS [TNNI3K_Y425] has a documented phosphorylation enrichment of 0.338

In plain terms, LSVEIHDRREF [ITGB7_Y753_Y753H_YF] has a documented phosphorylation enrichment of 0.558

In plain terms, NKYTTYLPRLP [C9orf24_Y126] has a documented phosphorylation enrichment of 0.483

In plain terms, REENGYNTFAS [FGF10_Y161_I156R_YF] has a documented phosphorylation enrichment of 0.69

In plain terms, LRNIDYYRLDG [ATRX_Y2083] has a documented phosphorylation enrichment of 0.851

In plain terms, LFDPDFMKVIL [CYP4A22_Y104_Y104F_YF] has a documented phosphorylation enrichment of 1.06

In plain terms, GNLLIYTEFGN [HGD_Y166_K171N] has a documented phosphorylation enrichment of 3.75

In plain terms, YSKDIYKRVTG [PANK2_Y405_N404I] has a documented phosphorylation enrichment of 0.401

In plain terms, HDHYGYRQSVT [CD55_Y245_R240H] has a documented phosphorylation enrichment of 0.883

In plain terms, LHRAHYDLHHT [AHSG_Y314_R317H] has a documented phosphorylation enrichment of 0.496

In plain terms, KDHRDYKYQPR [SOX9_Y172_P170R] has a documented phosphorylation enrichment of 0.456

In plain terms, SSSGGYGGGFG [KRT19_Y61_A60G_YF] has a documented phosphorylation enrichment of 0.398

In plain terms, LNPFIYSLRNW [OR1A2_Y288] has a documented phosphorylation enrichment of 4.23

In plain terms, RFVSRYIFNRE [HLA-DQB1_Y62_T60S_YF] has a documented phosphorylation enrichment of 0.994

In plain terms, DDSSAYCSVDE [BCKDHA_Y345_R346C] has a documented phosphorylation enrichment of 0.505

In plain terms, EIELAYRRRPP [GRIN2B_Y1109] has a documented phosphorylation enrichment of 0.385

In plain terms, CTAIHYNFMCN [TP53_Y234_T231A_YF] has a documented phosphorylation enrichment of 0.38

In plain terms, VVLVSYVPSSQ [SH2B1_Y624] has a documented phosphorylation enrichment of 0.424

In plain terms, FQKNIYSEELR [LMNA_Y211] has a documented phosphorylation enrichment of 5.8
